Reference source: patent US20220177587A1

Molecular target: human PD-L1 (human) (UniProt Q9NZQ7)
Sequence (Q9NZQ7 19-290): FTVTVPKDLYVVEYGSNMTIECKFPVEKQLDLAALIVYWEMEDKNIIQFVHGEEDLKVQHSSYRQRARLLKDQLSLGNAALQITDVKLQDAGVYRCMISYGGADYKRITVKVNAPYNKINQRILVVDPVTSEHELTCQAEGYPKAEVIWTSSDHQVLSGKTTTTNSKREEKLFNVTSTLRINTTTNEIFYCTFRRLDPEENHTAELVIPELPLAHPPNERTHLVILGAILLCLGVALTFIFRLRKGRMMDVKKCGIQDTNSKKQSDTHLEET
Assay: flow cytometry, MFI on PD-L1 cells over MFI on CD28 cells
Mark YES only when Ratio of PDL1:CD28 stays strictly below 9. Values equal to the cut-off are NO.

BINDER	LABEL_CLASS
variant CD80 IgV-Fc H18Y/E35D/A71G/D90G (Fc fusion) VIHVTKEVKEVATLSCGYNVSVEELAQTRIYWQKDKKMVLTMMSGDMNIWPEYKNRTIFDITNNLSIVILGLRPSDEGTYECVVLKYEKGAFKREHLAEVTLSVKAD	YES
variant CD80 IgV-Fc A26E/M47L/A71G/D90G (Fc fusion) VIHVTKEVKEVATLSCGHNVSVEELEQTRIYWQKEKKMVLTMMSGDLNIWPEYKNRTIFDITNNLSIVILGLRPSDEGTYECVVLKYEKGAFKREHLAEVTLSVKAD	YES
variant CD80 IgV-Fc H18Y/A26E/V68M/A71G (Fc fusion) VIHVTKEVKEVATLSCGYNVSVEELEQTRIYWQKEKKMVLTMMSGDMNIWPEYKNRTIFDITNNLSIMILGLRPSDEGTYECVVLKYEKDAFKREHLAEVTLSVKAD	NO
variant CD80 IgV-Fc E35D/M47L/V68M/D90G (Fc fusion) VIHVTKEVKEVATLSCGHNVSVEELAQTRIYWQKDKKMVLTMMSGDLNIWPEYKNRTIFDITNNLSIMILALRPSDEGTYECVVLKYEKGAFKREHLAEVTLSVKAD	YES
variant CD80 IgV-Fc H18Y/A26E/V68M/D90G (Fc fusion) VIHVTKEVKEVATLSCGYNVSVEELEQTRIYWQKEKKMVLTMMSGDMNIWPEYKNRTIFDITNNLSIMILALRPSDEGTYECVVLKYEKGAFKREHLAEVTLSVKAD	YES
variant CD80 IgV-Fc H18Y/A26E/M47L/D90G (Fc fusion) VIHVTKEVKEVATLSCGYNVSVEELEQTRIYWQKEKKMVLTMMSGDLNIWPEYKNRTIFDITNNLSIVILALRPSDEGTYECVVLKYEKGAFKREHLAEVTLSVKAD	YES
variant CD80 IgV-Fc A26E/E35D/M47L/D90G (Fc fusion) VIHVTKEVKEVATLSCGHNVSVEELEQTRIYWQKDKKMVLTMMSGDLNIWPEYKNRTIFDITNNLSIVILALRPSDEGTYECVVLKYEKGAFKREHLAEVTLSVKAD	YES
variant CD80 IgV-Fc A26E/E35D/V68M/D90G (Fc fusion) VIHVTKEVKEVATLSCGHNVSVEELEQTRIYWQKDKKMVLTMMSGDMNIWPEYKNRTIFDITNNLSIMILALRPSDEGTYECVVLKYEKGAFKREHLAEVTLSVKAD	YES
variant CD80 IgV-Fc H18Y/A26E/E35D/M47L (Fc fusion) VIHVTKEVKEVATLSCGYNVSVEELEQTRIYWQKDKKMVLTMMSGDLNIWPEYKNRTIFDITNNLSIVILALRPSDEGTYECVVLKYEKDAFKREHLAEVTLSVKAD	NO
variant CD80 IgV-Fc H18Y/M47L/V68M/D90G (Fc fusion) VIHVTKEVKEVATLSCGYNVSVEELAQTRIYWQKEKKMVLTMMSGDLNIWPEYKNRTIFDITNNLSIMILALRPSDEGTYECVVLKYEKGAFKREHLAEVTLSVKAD	YES
variant CD80 IgV-Fc H18Y/A26E/M47L/A71G (Fc fusion) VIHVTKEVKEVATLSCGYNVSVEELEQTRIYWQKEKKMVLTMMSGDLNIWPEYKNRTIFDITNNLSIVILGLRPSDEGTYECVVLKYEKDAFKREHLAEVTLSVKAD	NO
